# method summary: log P determination by HPLC (EEC Directive 79/831 Annex V.A8)
# Format: physicochemical
# condition summary: log P
If the reported chromatographic logP equals or exceeds 3, assign met. If not, assign not met.

[
  {
    "molecule": "Cc1cc(C)c(NC(=O)c2cc(Cn3nnc(C(F)(F)F)n3)nn2-c2ncccc2Cl)c(C(=O)NC2CCC2)c1",
    "cat": "met"
  },
  {
    "molecule": "Cc1cc(C#N)cc(C(N)=O)c1NC(=O)c1cc(Cn2nnc(C(F)F)n2)nn1-c1ncccc1Cl",
    "cat": "not met"
  },
  {
    "molecule": "Cc1cc(Cl)cc(C(=O)NCC#N)c1NC(=O)c1cc(Cn2nnc(C(F)(C(F)(F)F)C(F)(F)F)n2)nn1-c1ncccc1Cl",
    "cat": "met"
  },
  {
    "molecule": "Cc1cc(C#N)cc(C(=O)NOC(C)C)c1NC(=O)c1cc(Cn2nnc(C(F)(F)F)n2)nn1-c1ncccc1Cl",
    "cat": "not met"
  },
  {
    "molecule": "Cc1cc(Cl)cc(C(=O)NC(C)(C)C)c1NC(=O)c1cc(C(C)n2nnc(C(F)(F)F)n2)nn1-c1ncccc1Cl (stereo not drawn)",
    "cat": "met"
  },
  {
    "molecule": "Cc1cc(C#N)cc(C(=O)NC(C)C2CC2)c1NC(=O)c1cc(Cn2nnc(C(F)(F)C(F)(F)F)n2)nn1-c1ncccc1Cl (stereo not drawn)",
    "cat": "met"
  },
  {
    "molecule": "CNC(=O)c1cc(Br)cc(C)c1NC(=O)c1cc(Cn2nnc(C(F)(F)C(F)(F)F)n2)nn1-c1ncccc1Cl",
    "cat": "met"
  },
  {
    "molecule": "Cc1cc(C#N)cc(C(=O)NC2CCC2)c1NC(=O)c1cc(Cn2nnc(C(F)F)n2)nn1-c1ncccc1Cl",
    "cat": "not met"
  },
  {
    "molecule": "CNC(=O)c1cc(Cl)cc(C)c1NC(=O)c1cc(Cn2nnnc2C(F)(F)F)nn1-c1ncccc1Cl",
    "cat": "not met"
  },
  {
    "molecule": "Cc1cc(I)cc(C(=O)NC2CCC2)c1NC(=O)c1cc(Cn2nnc(C(F)(F)F)n2)nn1-c1ncccc1Cl",
    "cat": "met"
  },
  {
    "molecule": "Cc1cc(F)cc(C(=O)NCC2CC2)c1NC(=O)c1cc(Cn2nnc(C(F)(F)F)n2)nn1-c1ncccc1Cl",
    "cat": "met"
  },
  {
    "molecule": "CNC(=O)c1cc(C#N)cc(C)c1NC(=O)c1cc(Cn2nnc(C(F)(C(F)(F)F)C(F)(F)F)n2)nn1-c1ncccc1Cl",
    "cat": "met"
  },
  {
    "molecule": "Cc1cc(F)cc(C(=O)NC(C)(C)C)c1NC(=O)c1cc(Cn2nnc(C(F)F)n2)nn1-c1ncccc1Cl",
    "cat": "not met"
  },
  {
    "molecule": "Cc1cc(Cl)cc(C(=O)NC(C)C)c1NC(=O)c1cc(Cn2nnnc2C(F)(F)C(F)(F)F)nn1-c1ncccc1Cl",
    "cat": "met"
  },
  {
    "molecule": "CNC(=O)c1cc(I)cc(C)c1NC(=O)c1cc(Cn2nnnc2C(F)(F)F)nn1-c1ncccc1Cl",
    "cat": "not met"
  },
  {
    "molecule": "Cc1cc(C#N)cc(C(=O)NC(C)C)c1NC(=O)c1cc(Cn2nnc(C(F)F)n2)nn1-c1ncccc1Cl",
    "cat": "not met"
  },
  {
    "molecule": "Cc1cc(C#N)cc(C(=O)NC2(C)CCC2)c1NC(=O)c1cc(Cn2nnc(C(F)(F)F)n2)nn1-c1ncccc1Cl",
    "cat": "met"
  },
  {
    "molecule": "CNC(=O)c1cc(Cl)cc(C)c1NC(=O)c1cc(Cn2nnc(C(F)(C(F)(F)F)C(F)(F)F)n2)nn1-c1ncccc1Cl",
    "cat": "met"
  },
  {
    "molecule": "Cc1cc(Cl)cc(C(=O)NC(C)(C)C)c1NC(=O)c1cc(Cn2nnnc2C(F)(F)F)nn1-c1ncccc1Cl",
    "cat": "met"
  },
  {
    "molecule": "Cc1cc(C#N)cc(C(=O)NCCC(F)(F)F)c1NC(=O)c1cc(Cn2nnnc2C(F)(F)F)nn1-c1ncccc1Cl",
    "cat": "not met"
  },
  {
    "molecule": "Cc1cc(F)cc(C(=O)NC(C)(C)C)c1NC(=O)c1cc(Cn2nnc(C(F)(F)C(F)(F)F)n2)nn1-c1ncccc1Cl",
    "cat": "met"
  },
  {
    "molecule": "CNC(=O)c1cc(Cl)cc(Cl)c1NC(=O)c1cc(Cn2nnc(C(F)(F)C(F)(F)F)n2)nn1-c1ncccc1Cl",
    "cat": "met"
  },
  {
    "molecule": "Cc1cc(Br)cc(C(=O)NC(C)C2CC2)c1NC(=O)c1cc(Cn2nnc(C(F)F)n2)nn1-c1ncccc1Cl (stereo not drawn)",
    "cat": "met"
  },
  {
    "molecule": "CSC[C@H](C)NC(=O)c1cc(Cl)cc(C)c1NC(=O)c1cc(Cn2nnc(C(F)(F)F)n2)nn1-c1ncccc1Cl",
    "cat": "met"
  }
]

====

# method summary: log P determination by HPLC (EEC Directive 79/831 Annex V.A8)
# Format: physicochemical
# condition summary: log P
Short version: chromatographic logP at least 3 is fulfilled, less is not fulfilled.

[
  {
    "molecule": "CSC[C@H](C)NC(=O)c1cc(C#N)cc(C)c1NC(=O)c1cc(Cn2nnc(C(F)(F)F)n2)nn1-c1ncccc1Cl [Example 14]",
    "cat": "fulfilled"
  },
  {
    "molecule": "CCNC(=O)c1cc(Cl)cc(Cl)c1NC(=O)c1cc(Cn2nnc(C(F)F)n2)nn1-c1ncccc1Cl [Example 285]",
    "cat": "not fulfilled"
  },
  {
    "molecule": "C=CCNC(=O)c1cc(Cl)cc(C)c1NC(=O)c1cc(Cn2nnc(C(F)(F)F)n2)nn1-c1ncccc1Cl [Example 319]",
    "cat": "fulfilled"
  },
  {
    "molecule": "Cc1cc(C#N)cc(C(=O)NC(C)(C)C)c1NC(=O)c1cc(C(C)n2nnc(C(F)(F)F)n2)nn1-c1ncccc1Cl (stereo not shown) [Example 436]",
    "cat": "fulfilled"
  },
  {
    "molecule": "Cc1cc(F)cc(C(=O)NC(C)C)c1NC(=O)c1cc(Cn2nnnc2C(F)(F)F)nn1-c1ncccc1Cl [Example 168]",
    "cat": "not fulfilled"
  },
  {
    "molecule": "NC(=O)c1cc(Cl)cc(Cl)c1NC(=O)c1cc(Cn2nnc(C(F)(F)F)n2)nn1-c1ncccc1Cl [Example 55]",
    "cat": "not fulfilled"
  }
]

====

Here the recorded chromatographic logP is given for each entry.
# method summary: log P determination by HPLC (EEC Directive 79/831 Annex V.A8)
# Format: physicochemical
# condition summary: reversed-phase HPLC, Zorbax Eclipse C18 column, determined by HPLC according to EEC Directive 79/831 Annex V.A8; read-out: log P

[
  {
    "compound": "Cc1cc(Cl)cc(C(=O)NC2CC2)c1NC(=O)c1cc(Cn2nnc(C(F)(F)C(F)(F)F)n2)nn1-c1ncccc1Br [Example 420]",
    "chromatographic logP": 3.62
  },
  {
    "compound": "Cc1cc(Cl)cc(C(=O)NC(C)C)c1NC(=O)c1cc(Cn2nnnc2C(F)(F)F)nn1-c1ncccc1Br [Example 485]",
    "chromatographic logP": 3.14
  },
  {
    "compound": "Cc1cc(Br)cc(C(=O)NCC#N)c1NC(=O)c1cc(Cn2nnnc2C(F)(F)F)nn1-c1ncccc1C(F)(F)F [Example 451]",
    "chromatographic logP": 2.9
  },
  {
    "compound": "Cc1cc(C#N)cc(C(=O)NCC#N)c1NC(=O)c1cc(Cn2nnc(C(F)(F)F)n2)nn1-c1ccccc1Cl [Example 540]",
    "chromatographic logP": 2.97
  }
]

====

A collection of compounds and their measured chromatographic logP
# method summary: log P determination by HPLC (EEC Directive 79/831 Annex V.A8)
# Format: physicochemical
# condition summary: reversed-phase HPLC, Zorbax Eclipse C18 column, determined by HPLC according to EEC Directive 79/831 Annex V.A8; read-out: log P
endpoint: chromatographic logP

[
  {
    "compound": "Cc1cc(I)cc(C(=O)NCC#N)c1NC(=O)c1cc(Cn2nnc(C(F)(F)F)n2)nn1-c1ncccc1Br",
    "value measured": 3.16
  },
  {
    "compound": "Cc1cc(C#N)cc(C(=O)NC(C)(C)C)c1NC(=O)c1cc(Cn2nnnc2C(F)(F)F)nn1-c1ccccc1",
    "value measured": 3.35
  },
  {
    "compound": "Cc1cc(C#N)cc(C(=O)NC(C)(C)C)c1NC(=O)c1cc(Cn2nnc(C(F)(F)F)n2)nn1-c1ccccc1",
    "value measured": 3.72
  },
  {
    "compound": "Cc1cc(I)cc(C(=O)NC2CC2)c1NC(=O)c1cc(Cn2nnnc2C(F)(F)F)nn1-c1ncccc1C(F)(F)F",
    "value measured": 3.31
  },
  {
    "compound": "Cc1cc(I)cc(C(=O)NC(C)C)c1NC(=O)c1cc(Cn2nnnc2C(F)(F)F)nn1-c1ncccc1C(F)(F)F",
    "value measured": 3.54
  },
  {
    "compound": "Cc1cc(C#N)cc(C(=O)NC(C)(C)C)c1NC(=O)c1cc(Cn2nnc(C(F)(F)F)n2)nn1-c1c(F)cccc1Cl",
    "value measured": 3.88
  },
  {
    "compound": "CNC(=O)c1cc(I)cc(C)c1NC(=O)c1cc(Cn2nnnc2C(F)(F)F)nn1-c1ncccc1Br",
    "value measured": 2.91
  },
  {
    "compound": "Cc1cc(Cl)cc(C(=O)NC2CC2)c1NC(=O)c1cc(Cn2nnnc2C(F)(F)F)nn1-c1ncccc1Br",
    "value measured": 2.9
  },
  {
    "compound": "CCNC(=O)c1cc(Br)cc(C)c1NC(=O)c1cc(Cn2nnnc2C(F)(F)F)nn1-c1ncccc1C(F)(F)F",
    "value measured": 3.17
  },
  {
    "compound": "CNC(=O)c1cc(C#N)cc(C)c1NC(=O)c1cc(Cn2nnc(C(F)(F)C(F)(F)F)n2)nn1-c1ccccc1Cl",
    "value measured": 3.43
  },
  {
    "compound": "Cc1cc(C#N)cc(C(=O)NC(C)(C)C)c1NC(=O)c1cc(Cn2nnnc2C(F)(F)F)nn1-c1ccccc1Cl",
    "value measured": 3.52
  },
  {
    "compound": "Cc1cc(I)cc(C(=O)NC(C)C)c1NC(=O)c1cc(Cn2nnc(C(F)(F)F)n2)nn1-c1ncccc1Br",
    "value measured": 3.77
  },
  {
    "compound": "CNC(=O)c1cc(S(C)(=O)=O)cc(C)c1NC(=O)c1cc(Cn2nnnc2C(F)(F)F)nn1-c1ccccc1Cl",
    "value measured": 2.43
  },
  {
    "compound": "CNC(=O)c1cc(C#N)cc(C)c1NC(=O)c1cc(Cn2nnnc2C(F)(F)F)nn1-c1ncccc1Br",
    "value measured": 2.47
  },
  {
    "compound": "CNC(=O)c1cc(C#N)cc(C)c1NC(=O)c1cc(Cn2nnc(C(F)(F)F)n2)nn1-c1ccc(OC(F)(F)F)cc1Cl",
    "value measured": 3.82
  },
  {
    "compound": "CCNC(=O)c1cc(Br)cc(C)c1NC(=O)c1cc(Cn2nnnc2C(F)(F)F)nn1-c1ncccc1Br",
    "value measured": 3.02
  },
  {
    "compound": "CNC(=O)c1cc(C#N)cc(C)c1NC(=O)c1cc(Cn2nnc(C(F)(F)F)n2)nn1-c1ncccc1F",
    "value measured": 2.46
  },
  {
    "compound": "CCC(C)NC(=O)c1cc(C#N)cc(C)c1NC(=O)c1cc(Cn2nnc(C(F)(F)F)n2)nn1-c1ccccc1Cl (stereo not shown)",
    "value measured": 3.81
  },
  {
    "compound": "CNC(=O)c1cc(C#N)cc(C)c1NC(=O)c1cc(Cn2nnc(C(F)(F)F)n2)nn1-c1ccccc1",
    "value measured": 2.81
  },
  {
    "compound": "Cc1cc(Br)cc(C(=O)NC(C)(C)C)c1NC(=O)c1cc(Cn2nnnc2C(F)(F)F)nn1-c1ncccc1C(F)(F)F",
    "value measured": 3.78
  },
  {
    "compound": "COCCNC(=O)c1cc(C#N)cc(C)c1NC(=O)c1cc(Cn2nnc(C(F)(F)F)n2)nn1-c1ccccc1Cl",
    "value measured": 3.18
  },
  {
    "compound": "Cc1cc(C#N)cc(C(=O)NC(C)C)c1NC(=O)c1cc(Cn2nnc(C(F)(F)C(F)(F)F)n2)nn1-c1ncccc1Br",
    "value measured": 3.46
  },
  {
    "compound": "Cc1cc(I)cc(C(=O)NC2CC2)c1NC(=O)c1cc(Cn2nnnc2C(F)(F)F)nn1-c1ncccc1Br",
    "value measured": 3.11
  },
  {
    "compound": "Cc1cc(I)cc(C(N)=O)c1NC(=O)c1cc(Cn2nnnc2C(F)(F)F)nn1-c1ncccc1Br",
    "value measured": 2.63
  },
  {
    "compound": "CNC(=O)c1cc(I)cc(C)c1NC(=O)c1cc(Cn2nnc(C(F)(F)F)n2)nn1-c1ncccc1Br",
    "value measured": 3.26
  },
  {
    "compound": "Cc1cc(Cl)cc(C(=O)NC(C)(C)C)c1NC(=O)c1cc(Cn2nnnc2C(F)(F)F)nn1-c1ncccc1Br",
    "value measured": 3.52
  },
  {
    "compound": "Cc1cc(C#N)cc(C(N)=O)c1NC(=O)c1cc(Cn2nnc(C(F)(F)C(F)(F)F)n2)nn1-c1ncccc1Br",
    "value measured": 2.8
  },
  {
    "compound": "CNC(=O)c1cc(I)cc(C)c1NC(=O)c1cc(Cn2nnnc2C(F)(F)F)nn1-c1ncccc1C(F)(F)F",
    "value measured": 3.07
  }
]
